system: L1210 leukemia ip in BDF1 mice, survival T/C; test: NCI In Vivo Anticancer Drug Screen. Data for tumor model L1210 Leukemia (intraperitoneal) in B6D2F1 (BDF1) mice; conditions: endpoint: mean survival time; dose: 100.0 mg/kg/injection; schedule: Q01DX009 (ip); vehicle: saline with Tween-80; higher = longer survival
Toxic doses and inconclusive results are not listed.
outcome-measure: T/C

# molecule, T/C
data = [
    ("O=C1SC2(CCCCC2)SC1=O", "113 % of control"),
    ("CCOc1ccc(C(=O)Nc2c(C)cc(C)cc2C)cc1", "96 % of control"),
    ("CC(C)=Cc1ccccc1", "98 % of control"),
    ("C=COC(=O)c1ccccc1", "98 % of control"),
]

Field: T/C. Fill in for each record below.
1. Cc1cc(OCCOC(=O)Nc2ccc(C)c([N+](=O)[O-])c2)ccc1Cl
2. CC1(C)C2=CCCC(O)C2(C)CCC1O (stereo unspecified)

["87 % of control", "96 % of control"]

----------
test system: L1210 leukemia ip in BDF1 mice, survival T/C; test: NCI In Vivo Anticancer Drug Screen. Data for tumor model L1210 Leukemia (intraperitoneal) in B6D2F1 (BDF1) mice; details: endpoint: mean survival time; dose: 50.0 mg/kg/injection; schedule: Q01DX009 (ip); vehicle: Klucel (hydroxypropylcellulose) (HPC); higher = longer survival
Toxic doses and inconclusive results are not listed.
Kindly state T/C for each of the entries shown.

Known T/C results, listed for orientation:
# compound, outcome-measure, result
records = [
    ("COc1ccc2c3csc4ccccc4c-3nc2c1", "T/C", "100 % of control"),
    ("Cc1cnc2c(=O)[nH]c(=O)[nH]c2n1", "T/C", "96 % of control"),
    ("O=C(CBr)NCC(S)c1ccc(Cl)cc1 (centres undefined)", "T/C", "97 % of control"),
]

Tell me T/C of "O=C(O)c1cc(Cl)ccc1Br" when tested on L1210 leukemia ip in BDF1 mice, survival T/C.
104 % of control

----------
tested on: L1210 leukemia ip in BDF1 mice, survival T/C; assay: NCI In Vivo Anticancer Drug Screen. Data for tumor model L1210 Leukemia (intraperitoneal) in B6D2F1 (BDF1) mice; conditions: endpoint: mean survival time; dose: 400.0 mg/kg/injection; schedule: Q01DX009 (ip); vehicle: saline with Tween-80; higher = longer survival
Inconclusive results and toxic doses are left out.
So I've got a bunch of compounds here, and I need their T/C values.

# compound, T/C
measured = [
    ("COc1ccc(C=Nc2ccc3c(c2)OCO3)cc1Br", "103 % of control"),
    ("CCCCSP(=S)(SCCCC)SCCCC", "102 % of control"),
    ("NC(=O)CC(NC(=O)OCc1ccccc1)C(=O)OCc1ccccc1 (stereo unspecified)", "93 % of control"),
    ("Cc1ccc(C)n1-c1ccc(S(=O)(=O)c2ccc(NC(=O)CCC(=O)O)cc2)cc1", "96 % of control"),
    ("COC(OC)c1[nH]c(=S)[nH]c(=O)c1Cc1cccc2ccccc12", "93 % of control"),
]

Assign T/C to the following record: "Cc1cccc(=O)n1Cc1ccccc1"
88 % of control

----------
system: L1210 leukemia ip in BDF1 mice, survival T/C; assay: NCI In Vivo Anticancer Drug Screen. Data for tumor model L1210 Leukemia (intraperitoneal) in B6D2F1 (BDF1) mice; details: endpoint: mean survival time; dose: 50.0 mg/kg/injection; schedule: Q04DX003 (ip); vehicle: saline with Tween-80; higher = longer survival
Inconclusive results and toxic doses are left out.
outcome-measure: T/C

# molecule, study-target, T/C
rows = [
    ("CCOc1ccc(Nc2cc([N+](=O)[O-])ccc2C(=O)O)cc1", "L1210 leukemia ip in BDF1 mice, survival T/C", "95 % of control"),
    ("Cc1cc2c(cc1C)C(O)C(N1CCN(C)CC1)CCC2 (stereo not given)", "L1210 leukemia ip in BDF1 mice, survival T/C", "103 % of control"),
]

Batch lookup, T/C per entry.
1. O=[N+]([O-])c1ccc(OCc2ccccc2)c(Cl)c1
2. CCCCCCCCCCCCCC[N+](C)(C)Cc1cc(=O)c(O)co1
3. CCN1C(=O)C2C3C=CC(C3)C2C1=O (stereo not given)

["96 % of control", "101 % of control", "104 % of control"]
